EC50: recorded values
Target: Neuropeptide Y receptor type 4 (Homo sapiens, UniProt P50391)
Sequence (P50391 whole entry): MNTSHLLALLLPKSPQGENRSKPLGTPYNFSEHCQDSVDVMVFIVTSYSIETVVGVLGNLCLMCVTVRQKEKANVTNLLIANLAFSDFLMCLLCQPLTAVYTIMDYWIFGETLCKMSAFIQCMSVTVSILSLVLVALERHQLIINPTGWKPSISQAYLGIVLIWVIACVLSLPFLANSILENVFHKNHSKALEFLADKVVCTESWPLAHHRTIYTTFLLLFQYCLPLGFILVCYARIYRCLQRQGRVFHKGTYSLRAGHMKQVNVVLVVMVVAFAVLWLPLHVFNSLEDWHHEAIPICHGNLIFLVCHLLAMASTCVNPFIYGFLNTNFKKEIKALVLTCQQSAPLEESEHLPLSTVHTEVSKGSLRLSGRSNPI
Assay: Agonist activity at human Y4R expressed in CHO cells co-expressing Gqi5-mtAEQ by calcium2+ aequorin assay
Type: functional, cell-based
Settings: read-out: EC50
Starred links: 1 amine or outer side, 2 acyl side, 3 side chain; linkers in the order of their positions; H or OH if unused. Positions of bridges follow the written chain, without caps; N, C: chain ends. Non-standard residues stand in square brackets, D forms with d. Residues, ends and D or L forms follow the SMILES beside them. Arg(Nω-CO) = N/C(=N\C(=O)[*:3])NCCC[C@H](N[*:1])C(=O)[*:2]; Ethylenediamine = C(CN[*:2])N[*:1]
Note: a bare number is incomplete; add the unit.

{"MOLECULE": "CC(C)C[C@H](NC(=O)[C@@H]1CCCN/C(N)=N/C(=O)NCCNC(=O)CC[C@H](N)C(=O)N[C@@H](CCCNC(=N)N)C(=O)N[C@@H](Cc2ccc(O)cc2)C(=O)N1)C(=O)N[C@@H](CCCNC(=N)N)C(=O)N[C@@H](Cc1ccc(O)cc1)C(N)=O (H-ERY[Arg(Nω-CO)]LRY-NH2; linker 1-4 via Ethylenediamine)", "RECORDED RESULT": "60 nM"}

Kindly note the recorded EC50 for CC(C)C[C@H](NC(=O)[C@@H]1CCCN/C(N)=N/C(=O)NCCCCNC(=O)[C@@H](N)CC(=O)N[C@@H](CCCNC(=N)N)C(=O)N[C@@H](Cc2ccc(O)cc2)C(=O)N1)C(=O)N[C@@H](CCCNC(=N)N)C(=O)N[C@@H](Cc1ccc(O)cc1)C(N)=O , which is 5 nM

Kindly note the recorded EC50 for CCC(=O)N[C@H]1CC(=O)N[C@@H](CCCNC(=N)N)C(=O)N[C@@H](Cc2ccc(O)cc2)C(=O)N[C@H](C(=O)N[C@@H](CC(C)C)C(=O)N[C@@H](CCCNC(=N)N)C(=O)N[C@@H](Cc2ccc(O)cc2)C(N)=O)CCCN/C(N)=N/C(=O)NCCCCNC1=O , which is 24 nM

Kindly note the recorded EC50 for CC(C)C[C@H](NC(=O)[C@@H]1CCCN/C(N)=N/C(=O)NCCCCNC(=O)C[C@@H](N)C(=O)N[C@@H](CCCNC(=N)N)C(=O)N[C@@H](Cc2ccc(O)cc2)C(=O)N1)C(=O)N[C@@H](CCCNC(=N)N)C(=O)N[C@@H](Cc1ccc(O)cc1)C(N)=O , which is 11 nM
